TGT: HLA-A*2401 (purified HLA class I molecule) (human)
ASSAY_PROCEDURE: competition with 125I-labelled probe peptide for purified HLA, gel filtration
PROPERTY: relative binding ratio (IC50 of standard peptide / IC50 of test peptide)
Numbers only.

Take a look at these entries with their results.
relative binding ratio (IC50 of standard peptide / IC50 of test peptide) in this record for TYNTDTFESM [HER2/neu peptide, position 273, 10 amino acids] : 0.0074

Reported relative binding ratio (IC50 of standard peptide / IC50 of test peptide) for WMIDSECRPRF [HER2/neu peptide, position 959, 11 amino acids] was 0.0011

The measured relative binding ratio (IC50 of standard peptide / IC50 of test peptide) associated with YMIMVKCW [HER2/neu peptide, position 952, 8 amino acids] reads 0.0009

Would you be so kind as to report relative binding ratio (IC50 of standard peptide / IC50 of test peptide) for each listed record?
1. VWSYGVTVWEL [HER2/neu peptide, position 905, 11 amino acids]
2. VYMIMVKCWMI [HER2/neu peptide, position 951, 11 amino acids]
3. VFQNLQVI [HER2/neu peptide, position 424, 8 amino acids]

1: 0.092; 2: 1.8; 3: -0.0003

Source: patent US20040018971A1
